details: Liquid; Siwoloboff method
Measured Normal boiling temperature by item
recorded endpoint: Normal boiling temperature (°C)

>>> endpoint_result("CN1CCCC1=O")
202.14
>>> endpoint_result("CCO[Si](C)(OCC)c1cccc(C)c1")
235.8
>>> endpoint_result("CCO[Si](C)(OCC)c1ccc(C)cc1")
239.57
>>> endpoint_result("CCO[Si](C)(OCC)c1ccccc1C")
239.83
